Taken from patent US11479532B2.

targetEntity: UniProtKB P08680
Sequence (P08680 50-587): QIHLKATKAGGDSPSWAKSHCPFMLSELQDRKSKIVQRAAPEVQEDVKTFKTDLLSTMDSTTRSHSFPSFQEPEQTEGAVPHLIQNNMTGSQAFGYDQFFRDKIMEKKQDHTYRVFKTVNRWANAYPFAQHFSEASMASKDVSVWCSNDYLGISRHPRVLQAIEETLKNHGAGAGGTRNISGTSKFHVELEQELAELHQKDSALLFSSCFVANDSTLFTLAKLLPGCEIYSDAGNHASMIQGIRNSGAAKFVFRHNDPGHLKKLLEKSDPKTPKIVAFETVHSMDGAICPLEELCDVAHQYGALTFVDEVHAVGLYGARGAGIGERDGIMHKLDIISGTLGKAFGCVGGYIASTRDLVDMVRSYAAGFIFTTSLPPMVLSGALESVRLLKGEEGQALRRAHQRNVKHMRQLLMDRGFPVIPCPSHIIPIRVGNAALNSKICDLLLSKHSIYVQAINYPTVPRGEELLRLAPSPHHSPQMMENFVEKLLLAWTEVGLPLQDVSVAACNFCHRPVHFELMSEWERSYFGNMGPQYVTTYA
Rule: IC50 below 40 µM gives true (1), anything at or above gives false (0).

# molecule, targetEntity, labelClass
measured = [
    ("O=C(NS(=O)(=O)c1ccc(CNc2cccc([N+](=O)[O-])c2)cc1)c1ccc(CN2C(=O)C(c3ccc(F)cc3F)=C(c3ccc(F)cc3F)C2=O)cc1", "UniProtKB P08680", "true (1)"),
    ("Cn1cc(C(=O)C2CCCCC2)c2cc(C(=O)NS(=O)(=O)c3ccc(-c4ccc(C(C)(C)C)cc4)cc3)ccc21", "UniProtKB P08680", "true (1)"),
    ("COc1ccc(Cc2ccc(C(=O)NS(=O)(=O)c3ccc(-c4ccc(Oc5ccccc5)cc4)cc3)cc2)c(OC)c1OC", "UniProtKB P08680", "true (1)"),
    ("COc1cccc(CN(CCSc2ccccc2)Cc2ccc(S(=O)(=O)NC(=O)c3cccc4ccccc34)cc2)c1", "UniProtKB P08680", "false (0)"),
]

Req: Quick check: IC50 of CC1(C)CCN(c2ccc(C(=O)NS(=O)(=O)c3ccc(CN(CCSc4ccccc4)Cc4ccc(S(N)(=O)=O)cc4)cc3)cc2)CC1 under 40 µM?
Resp: false (0)
